target: Hck (UniProt P08631)
Sequence (P08631 whole entry, looked up): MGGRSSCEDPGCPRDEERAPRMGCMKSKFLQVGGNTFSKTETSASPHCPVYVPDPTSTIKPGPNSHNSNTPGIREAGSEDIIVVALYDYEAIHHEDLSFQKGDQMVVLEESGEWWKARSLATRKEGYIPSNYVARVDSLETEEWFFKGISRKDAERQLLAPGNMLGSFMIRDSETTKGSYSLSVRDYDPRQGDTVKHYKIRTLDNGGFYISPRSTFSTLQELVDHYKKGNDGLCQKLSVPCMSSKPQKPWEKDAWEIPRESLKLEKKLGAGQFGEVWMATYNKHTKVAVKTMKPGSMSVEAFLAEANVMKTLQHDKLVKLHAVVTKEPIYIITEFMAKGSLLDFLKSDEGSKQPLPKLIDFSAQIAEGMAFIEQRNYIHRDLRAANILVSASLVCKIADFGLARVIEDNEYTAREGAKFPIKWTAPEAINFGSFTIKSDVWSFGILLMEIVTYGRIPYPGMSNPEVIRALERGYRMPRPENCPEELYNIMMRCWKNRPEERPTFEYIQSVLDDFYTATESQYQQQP
method notes: phosphorylation enrichment, bacterial display (enrichment ratio); higher = better substrate or ligand; peptides without Tyr show the background;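 further: 11-residue human phosphosite peptides and single-mutation variants displayed on the E. coli surface, counted by deep sequencing, each peptide's frequency after selection divided by its frequency in the unselected input library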;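 further: frequency after pTyr selection over input frequency; kinase dosed for 20-30% of maximal phosphorylation in three min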
Record t whenever phosphorylation enrichment is at 0.5 or higher; record f when lower.

Would you please look over these solved cases?
* NDQANYSLNTD [ADA_Y290] | f
* VMTVDYSKTVV [SETD2_Y770] | f
* LDFPEYNGVDR [CASQ1_Y43_D44N] | t
* KMGNIYRTEYG [MRPL3_Y265] | f
* GESKDYALHVG [SVIL_Y185] | f

// query Is reported phosphorylation enrichment greater than or equal to 0.5 here: RMLREYQELMS [KRT74_Y425]
// result t
